Value source: PubChem BioAssay AID2060509

Quick reference: viability, T/C of the listed items.
- Test system: 485176-168-R4-J1-PDC spheroids with HUVEC/MSC, viability
- TEST DETAILS: Anticancer human tumor 485176-168-R4-J1-PDC patient-derived pancreatic adenocarcinoma cell line growth inhibition [GQUAD]
- MEASUREMENT CONTEXT: second compound 0.1 µM; first compound 0.316 µM; stronger effect = lower value
READOUT: viability, T/C (%)

COMPOUND	READOUT	MEASURED VALUE
Nc1ccn(C2OC(CO)C(O)C2(F)F)c(=O)n1 (stereo not given) + Cc1cnc(CNC(=O)c2c(=O)c3ccc(N4CCCN(C)CC4)nc3n3c2sc2ccccc23)cn1	viability, T/C	7.73
COc1ccc([C@@H](O)c2cc(-c3ncnc4cc(N5CCOCC5)ccc34)c(F)cc2Cl)nn1 + Cc1[nH]c2ccc(F)cc2c1-c1nc2c3cccnc3c3ncccc3c2[nH]1	viability, T/C	94.7
C=CC(=O)N1CCN(c2nc(=O)n(-c3c(C)ccnc3C(C)C)c3nc(-c4c(O)cccc4F)c(F)cc23)C(C)C1 (stereo not given) + CN(C)c1ccc(Nc2c3ccc(NC(=O)CCN4CCCC4)cc3nc3cc(NC(=O)CCN4CCCC4)ccc23)cc1	viability, T/C	110
CC(C)n1c(=O)n(C)c2cnc3cc(F)c(-c4ccc(OCCCN5CCCCC5)nc4)cc3c21 + CN(C)c1ccc(Nc2c3ccc(NC(=O)CCN4CCCC4)cc3nc3cc(NC(=O)CCN4CCCC4)ccc23)cc1	viability, T/C	104
CC1COCCN1c1cc(C2(O)CC3CCC(C2)O3)c2cnn(-c3ccn[nH]3)c2n1 (stereo not given) + Cc1[nH]c2ccc(F)cc2c1-c1nc2c3cccnc3c3ncccc3c2[nH]1	viability, T/C	14.1

====

Here the recorded viability, T/C is given for each entry.
- Tested on: 485176-168-R4-J1-PDC spheroids with HUVEC/MSC, viability
- TEST DETAILS: Anticancer human tumor 485176-168-R4-J1-PDC cell line growth inhibition [GQUAD];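 also: spheroids exposed to compounds for seven days before readout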;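 as to viability, T/C: percent viability relative to DMSO vehicle control wells as 100%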
- MEASUREMENT CONTEXT: second compound 0.316 µM; first compound 3.16 µM; stronger effect = lower value
READOUT: viability, T/C (%)

COMPOUND	READOUT	MEASURED VALUE
C#Cc1c(F)ccc2cc(O)cc(-c3ncc4c(N5CC6CCC(C5)N6)nc(OCC56CCCN5CC(F)C6)nc4c3F)c12 (centres undefined) + Cc1cnc(CNC(=O)c2c(=O)c3ccc(N4CCCN(C)CC4)nc3n3c2sc2ccccc23)cn1	viability, T/C	63.3
COc1ccc([C@@H](O)c2cc(-c3ncnc4cc(N5CCOCC5)ccc34)c(F)cc2Cl)nn1 + Cc1[nH]c2ccc(F)cc2c1-c1nc2c3cccnc3c3ncccc3c2[nH]1	viability, T/C	53.2
CC(=O)O[C@H]1C(=O)[C@@]2(C)[C@H]([C@H](OC(=O)c3ccccc3)[C@]3(O)C[C@H](OC(=O)[C@H](O)[C@@H](NC(=O)c4ccccc4)c4ccccc4)C(C)=C1C3(C)C)[C@]1(OC(C)=O)CO[C@@H]1C[C@@H]2O + CN(C)c1ccc(Nc2c3ccc(NC(=O)CCN4CCCC4)cc3nc3cc(NC(=O)CCN4CCCC4)ccc23)cc1	viability, T/C	11.5
COc1cccc2c1C(=O)c1c(O)c3c(c(O)c1C2=O)CC(O)(C(=O)CO)CC3OC1CC(N)C(O)C(C)O1 (centres undefined) + CN(C)c1ccc(Nc2c3ccc(NC(=O)CCN4CCCC4)cc3nc3cc(NC(=O)CCN4CCCC4)ccc23)cc1	viability, T/C	3.97

====

# viability, T/C listing for each entry below
- System: 485176-168-R4-J1-PDC spheroids with HUVEC/MSC, viability
- TEST DETAILS: Anticancer human tumor 485176-168-R4-J1-PDC cell line growth inhibition [GQUAD];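 also: spheroids exposed to compounds for seven days before readout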;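 as to viability, T/C: percent viability relative to DMSO vehicle control wells as 100%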
- MEASUREMENT CONTEXT: second compound 0.0316 µM; first compound 0.000999 µM; stronger effect = lower value
- Description: DNA G-quadruplex Stabilizer Agents in Combinations in Complex Spheroids A high-throughput screen of multi-cell type tumor spheroids was designed to identify active combinations of DNA G-quadruplex stabilizer agents and targeted small molecules. […] Compounds. […] If the clinical Cmax for an agent had not been determined, the highest concentration tested was 10 microM. […]

COMPOUND	viability, T/C [%]
Cn1ncnc1[C@H]1c2n[nH]c(=O)c3cc(F)cc(c23)N[C@@H]1c1ccc(F)cc1 + Cc1cnc(CNC(=O)c2c(=O)c3ccc(N4CCCN(C)CC4)nc3n3c2sc2ccccc23)cn1	90.2
CCc1c2c(nc3ccc(O)cc13)-c1cc3c(c(=O)n1C2)COC(=O)[C@]3(O)CC + CN(C)c1ccc(Nc2c3ccc(NC(=O)CCN4CCCC4)cc3nc3cc(NC(=O)CCN4CCCC4)ccc23)cc1	87.7
CC[C@@]1(O)C(=O)OCc2c1cc1n(c2=O)Cc2cc3c(CN(C)C)c(O)ccc3nc2-1 + CN(C)c1ccc(Nc2c3ccc(NC(=O)CCN4CCCC4)cc3nc3cc(NC(=O)CCN4CCCC4)ccc23)cc1	97.9
CCc1c2c(nc3ccc(O)cc13)-c1cc3c(c(=O)n1C2)COC(=O)[C@]3(O)CC + Cc1[nH]c2ccc(F)cc2c1-c1nc2c3cccnc3c3ncccc3c2[nH]1	76.6

====

- Test system: 485176-168-R4-J1-PDC spheroids with HUVEC/MSC, viability
- TEST DETAILS: Anticancer human tumor 485176-168-R4-J1-PDC cell line growth inhibition [GQUAD];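 also: spheroids exposed to compounds for seven days before readout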;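 as to viability, T/C: percent viability relative to DMSO vehicle control wells as 100%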
- MEASUREMENT CONTEXT: second compound 0.1 µM; first compound 10 µM; stronger effect = lower value
Entries annotated with measured viability, T/C
READOUT: viability, T/C (%)

COMPOUND	VALUE UNITS	MEASURED VALUE
CC1COCCN1c1cc(C2(S(C)(=N)=O)CC2)nc(-c2ccnc3[nH]ccc23)n1 (stereo not drawn) + Cc1[nH]c2ccc(F)cc2c1-c1nc2c3cccnc3c3ncccc3c2[nH]1	%	16.4
CC1COCCN1c1cc(C2(O)CC3CCC(C2)O3)c2cnn(-c3ccn[nH]3)c2n1 (stereo not drawn) + Cc1[nH]c2ccc(F)cc2c1-c1nc2c3cccnc3c3ncccc3c2[nH]1	%	8.29
O=c1[nH]cc(F)c(=O)[nH]1 + Cc1[nH]c2ccc(F)cc2c1-c1nc2c3cccnc3c3ncccc3c2[nH]1	%	52.5

====

Reported IC50 values for the following compounds.
- Tested on: 485176-168-R4-J1-PDC spheroids with HUVEC/MSC, viability
- TEST DETAILS: Anticancer human tumor 485176-168-R4-J1-PDC cell line growth inhibition [GQUAD];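 also: spheroids exposed to compounds for seven days before readout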
- MEASUREMENT CONTEXT: curve of first compound; second compound 0.1 µM

COMPOUND	VALUE UNITS	IC50
COc1ccc([C@@H](O)c2cc(-c3ncnc4cc(N5CCOCC5)ccc34)c(F)cc2Cl)nn1 + Cc1cnc(CNC(=O)c2c(=O)c3ccc(N4CCCN(C)CC4)nc3n3c2sc2ccccc23)cn1	nM	486
Nc1ccn(C2OC(CO)C(O)C2(F)F)c(=O)n1 (stereo not given) + Cc1cnc(CNC(=O)c2c(=O)c3ccc(N4CCCN(C)CC4)nc3n3c2sc2ccccc23)cn1	nM	33.1

====

- Tested on: 485176-168-R4-J1-PDC spheroids with HUVEC/MSC, viability
- TEST DETAILS: Anticancer human tumor 485176-168-R4-J1-PDC cell line growth inhibition [GQUAD];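 also: spheroids exposed to compounds for seven days before readout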;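 as to viability, T/C: percent viability relative to DMSO vehicle control wells as 100%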
- MEASUREMENT CONTEXT: second compound 0.0316 µM; first compound 1 µM; stronger effect = lower value
Reported viability, T/C values for a set of molecules

MOLECULE	viability, T/C (%)
CC(=O)O[C@H]1C(=O)[C@@]2(C)[C@H]([C@H](OC(=O)c3ccccc3)[C@]3(O)C[C@H](OC(=O)[C@H](O)[C@@H](NC(=O)c4ccccc4)c4ccccc4)C(C)=C1C3(C)C)[C@]1(OC(C)=O)CO[C@@H]1C[C@@H]2O + CN(C)c1ccc(Nc2c3ccc(NC(=O)CCN4CCCC4)cc3nc3cc(NC(=O)CCN4CCCC4)ccc23)cc1	11.6
CC1COCCN1c1cc(C2(O)CC3CCC(C2)O3)c2cnn(-c3ccn[nH]3)c2n1 (configuration not stated) + Cc1cnc(CNC(=O)c2c(=O)c3ccc(N4CCCN(C)CC4)nc3n3c2sc2ccccc23)cn1	8.41

====

Reported viability, T/C values for a set of compounds
- System: 485176-168-R4-J1-PDC spheroids with HUVEC/MSC, viability
- TEST DETAILS: Anticancer human tumor 485176-168-R4-J1-PDC cell line growth inhibition [GQUAD];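 also: spheroids exposed to compounds for seven days before readout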;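 as to viability, T/C: percent viability relative to DMSO vehicle control wells as 100%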
- MEASUREMENT CONTEXT: second compound 0.1 µM; first compound 0.0316 µM; stronger effect = lower value
READOUT: viability, T/C (%)

COMPOUND	MEASURED VALUE
CCCS(=O)(=O)Nc1ccc(F)c(C(=O)c2c[nH]c3ncc(-c4ccc(Cl)cc4)cc23)c1F + CN(C)c1ccc(Nc2c3ccc(NC(=O)CCN4CCCC4)cc3nc3cc(NC(=O)CCN4CCCC4)ccc23)cc1	100
COc1ncnc(C2CC2)c1-c1ncc2cnn(Cc3ccc(-c4nc(C(F)(F)F)cn4C(C)C)cc3)c2n1 + Cc1cnc(CNC(=O)c2c(=O)c3ccc(N4CCCN(C)CC4)nc3n3c2sc2ccccc23)cn1	77.3
CC(=O)O[C@H]1C(=O)[C@@]2(C)[C@H]([C@H](OC(=O)c3ccccc3)[C@]3(O)C[C@H](OC(=O)[C@H](O)[C@@H](NC(=O)c4ccccc4)c4ccccc4)C(C)=C1C3(C)C)[C@]1(OC(C)=O)CO[C@@H]1C[C@@H]2O + Cc1[nH]c2ccc(F)cc2c1-c1nc2c3cccnc3c3ncccc3c2[nH]1	29.6
O=c1[nH]cc(F)c(=O)[nH]1 + Cc1cnc(CNC(=O)c2c(=O)c3ccc(N4CCCN(C)CC4)nc3n3c2sc2ccccc23)cn1	63.3
Cc1[nH]c2ccccc2c1CCNCc1ccc(/C=C/C(=O)NO)cc1 + Cc1cnc(CNC(=O)c2c(=O)c3ccc(N4CCCN(C)CC4)nc3n3c2sc2ccccc23)cn1	51.7
